Measured protein stability index accompanies every entry in the list below.
B1: PTPN9 (parent)
chain: LKGAFPARLKKVLIVGAPIWFRVP

Variants of: B1
Assay: protein stability index of a GFP-peptide fusion (GPS, HEK-293T) (PSI 1-6); higher = more stable;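 note: lentivirally expressed fusions sorted by FACS into six bins by GFP to DsRed ratio, PSI derived from sequencing read proportions per bin multiplied by bin number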
Conditions: c terminus: a fixed tail appended
The answer should be a number; do not append a unit.

Some solved cases for reference:
[[record]]
mutation_label = "R22L"
result_value = 4.03

[[record]]
mutation_label = "V15W"
result_value = 1.27

[[record]]
mutation_label = "P6M"
result_value = 1.86

[[record]]
mutation_label = "G3S"
result_value = 3.35

[[record]]
mutation_label = "V23D"
result_value = 2.11


Task item: Please give the measured protein stability index for this variant: `V15Y`
Reply: 2.25
